target: hTRPM8 channel (Homo sapiens, UniProt Q7Z2W7); construct: host or cells: CHO cells; assay: TRPM8 receptor assay, calcium entry (Fluo-8, FLIPR) in transfected CHO cells; assay type: cell-based; settings: ratio of TRPM8 EC50 values, menthol = 1.0
Sequence (Q7Z2W7 whole entry): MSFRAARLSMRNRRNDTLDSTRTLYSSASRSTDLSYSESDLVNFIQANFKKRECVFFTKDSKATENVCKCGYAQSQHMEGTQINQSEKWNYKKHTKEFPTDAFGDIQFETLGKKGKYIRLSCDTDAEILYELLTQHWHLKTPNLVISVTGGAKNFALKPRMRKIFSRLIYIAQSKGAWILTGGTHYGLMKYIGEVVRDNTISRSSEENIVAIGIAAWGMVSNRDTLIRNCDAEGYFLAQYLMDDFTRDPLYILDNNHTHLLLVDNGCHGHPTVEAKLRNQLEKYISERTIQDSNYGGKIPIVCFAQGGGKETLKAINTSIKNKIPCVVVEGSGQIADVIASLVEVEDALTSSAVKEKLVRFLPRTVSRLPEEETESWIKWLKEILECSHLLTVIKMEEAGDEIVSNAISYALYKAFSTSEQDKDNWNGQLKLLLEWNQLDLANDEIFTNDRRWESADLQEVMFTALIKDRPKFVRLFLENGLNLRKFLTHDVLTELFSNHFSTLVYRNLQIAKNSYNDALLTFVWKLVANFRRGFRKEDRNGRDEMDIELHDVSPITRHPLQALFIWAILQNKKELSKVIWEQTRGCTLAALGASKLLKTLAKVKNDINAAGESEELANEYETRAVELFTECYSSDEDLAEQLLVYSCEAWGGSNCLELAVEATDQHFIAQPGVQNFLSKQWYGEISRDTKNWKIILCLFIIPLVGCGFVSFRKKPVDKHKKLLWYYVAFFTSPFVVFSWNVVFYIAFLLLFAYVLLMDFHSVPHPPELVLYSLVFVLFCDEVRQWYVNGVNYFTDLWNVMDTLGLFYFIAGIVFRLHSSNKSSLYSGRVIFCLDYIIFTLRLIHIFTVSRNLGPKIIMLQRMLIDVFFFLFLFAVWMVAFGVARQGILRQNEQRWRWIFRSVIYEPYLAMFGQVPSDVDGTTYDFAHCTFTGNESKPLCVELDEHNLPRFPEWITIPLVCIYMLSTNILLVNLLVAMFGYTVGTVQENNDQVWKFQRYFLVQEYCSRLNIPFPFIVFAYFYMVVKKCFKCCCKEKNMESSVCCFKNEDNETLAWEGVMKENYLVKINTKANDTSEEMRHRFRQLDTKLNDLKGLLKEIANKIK
Mark each entry y if its Potency Relative to L-menthol sits below 6, and n for all others.

>>> class_assignment("CCCCOC(=O)CNC(=O)[C@@H]1C[C@H](C)CC[C@H]1C(C)C")
"y"
>>> class_assignment("CC(C)OC(=O)CNC(=O)[C@@H]1C[C@H](C)CC[C@H]1C(C)C")
"n"

Q: Consider the compound `CC(C)OC(=O)[C@@H](C)NC(=O)[C@@H]1C[C@H](C)CC[C@H]1C(C)C` . Is its Potency Relative to L-menthol strictly less than 6?
Result: n

Q: Consider the compound COC(=O)C(C)NC(=O)[C@@H]1C[C@H](C)CC[C@H]1C(C)C (stereo partly drawn) . Is its Potency Relative to L-menthol strictly less than 6?
Result: n

###

tested on: philtrum skin; assay: Cooling duration bioassay on philtrum skin; format: in vivo, human; settings: Table 6; cooling duration, keratinized skin
Label rule, in plain words: Philtrum Skin of 40 min and up is criterion met, under 40 min is criterion not met.

Some solved cases for reference:
>>> class_assignment("CCOC(=O)C(C)NC(=O)[C@@H]1C[C@H](C)CC[C@H]1C(C)C (stereo partly drawn) [L-Ala-OiPr]")
"criterion not met"
>>> class_assignment("CC(C)OC(=O)[C@@H](C)NC(=O)[C@@H]1C[C@H](C)CC[C@H]1C(C)C")
"criterion not met"
>>> class_assignment("COC(=O)C(C)NC(=O)[C@@H]1C[C@H](C)CC[C@H]1C(C)C (stereo partly drawn)")
"criterion met"
>>> class_assignment("CCCOC(=O)[C@@H](C)NC(=O)[C@@H]1C[C@H](C)CC[C@H]1C(C)C")
"criterion met"
>>> class_assignment("CCOC(=O)[C@H](C)NC(=O)[C@@H]1C[C@H](C)CC[C@H]1C(C)C")
"criterion not met"

Q: Does Philtrum Skin meet or surpass 40 min for CCOC(=O)C(C)NC(=O)[C@@H]1C[C@H](C)CC[C@H]1C(C)C (stereo partly drawn) [L-Ala-OnBu] ?
Result: criterion not met

Q: Does Philtrum Skin meet or surpass 40 min for `CCCCOC(=O)CNC(=O)[C@@H]1C[C@H](C)CC[C@H]1C(C)C` ?
Result: criterion not met

Q: Does Philtrum Skin meet or surpass 40 min for CCCCOC(=O)C(C)NC(=O)[C@@H]1C[C@H](C)CC[C@H]1C(C)C (stereo partly drawn) ?
Result: criterion met

Q: Does Philtrum Skin meet or surpass 40 min for `CCCOC(=O)CNC(=O)[C@@H]1C[C@H](C)CC[C@H]1C(C)C` ?
Result: criterion met

Q: Does Philtrum Skin meet or surpass 40 min for `CCOC(=O)[C@@H](C)NC(=O)[C@@H]1C[C@H](C)CC[C@H]1C(C)C` ?
Result: criterion met

Q: Does Philtrum Skin meet or surpass 40 min for CCOC(=O)C(C)NC(=O)[C@@H]1C[C@H](C)CC[C@H]1C(C)C (stereo partly drawn) [L-Ala-OnPr] ?
Result: criterion not met

Q: Does Philtrum Skin meet or surpass 40 min for CCOC(=O)CNC(=O)[C@@H]1C[C@H](C)CC[C@H]1C(C)C [GlyOEt, reference compound] ?
Result: criterion not met
